Hello, the source for this data is PubChem BioAssay (NCI), in case you need it.

System: ACHN renal
Assay notes: NCI-60 one-dose screen, 48 h (100 = growth as untreated, 0 = no growth, -100 = all killed)
Condition set: 10 µM unless noted
This is part of a sample that, as a whole, favours compounds with a hit. Of some 83,000 tested, about 20% had one in any assay.
// growth lookup, one value per entry
Quantity: growth (%)

>>> df
                         structure_notation  quantity  display_unit  experimental_result
0                       N#CSCc1c(Cl)cccc1Cl    growth             %                 49.9
1     COc1ccc(N=N/N=c2\sc3cc(OC)ccc3n2C)cc1    growth             %                 97.4
2              CCC(CC)COC(=O)c1ccc(O)c(O)c1    growth             %                 72.5
3      Cc1ccc2nc(-[n+]3cc4ccccc4cc3C)ccc2c1    growth             %                  103
4                     O=C1OCc2cccc3cccc1c23    growth             %                 95.7
5  CCCCCCCCCCCCCCCCOP(=O)([O-])OCC[N+](C)(C)C    growth             %                 36.4
